Origin of values: ChEMBL document CHEMBL4017477

# key: entry, value: Emin
measuredOn: Muscarinic acetylcholine receptor M5 (Homo sapiens) (UniProt P08912)
Sequence (P08912 whole entry): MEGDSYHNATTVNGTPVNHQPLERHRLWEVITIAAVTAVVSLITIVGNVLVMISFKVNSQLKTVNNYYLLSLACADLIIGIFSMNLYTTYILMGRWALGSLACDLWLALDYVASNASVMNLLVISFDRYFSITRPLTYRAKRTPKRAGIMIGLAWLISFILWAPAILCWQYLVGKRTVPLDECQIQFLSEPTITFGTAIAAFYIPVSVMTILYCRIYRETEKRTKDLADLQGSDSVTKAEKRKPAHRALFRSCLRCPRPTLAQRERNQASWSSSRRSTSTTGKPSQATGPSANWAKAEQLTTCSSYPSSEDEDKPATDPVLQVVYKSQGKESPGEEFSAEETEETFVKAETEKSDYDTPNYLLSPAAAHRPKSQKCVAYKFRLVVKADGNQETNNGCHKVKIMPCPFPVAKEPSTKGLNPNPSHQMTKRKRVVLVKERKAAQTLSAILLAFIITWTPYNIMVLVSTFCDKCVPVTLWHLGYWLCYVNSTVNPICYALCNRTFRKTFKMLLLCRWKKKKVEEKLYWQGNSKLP
methodNotes: Antagonist activity at recombinant human M5 receptor expressed in CHO cells co-expressing Gqi5 by calcium mobilization assay relative to acetylcholine
Assay type: functional, cell-based

Challenge: I'd like to know its Emin. The molecule in question is O=C(C1CCN(c2cc(Oc3ccccc3F)ncn2)CC1)N1CCc2ccccc2C1
Response given: < 6%

Challenge: I would be grateful if you could share the reported Emin for O=C(C1CCN(c2cc(Oc3ccc(F)cc3F)ncn2)CC1)N1CCc2ccccc2C1 .
Response given: < 6%

Challenge: Using the record for O=C(C1CCN(c2cc(Oc3ccc(Cl)cc3)ncn2)CC1)N1CCc2ccccc2C1 , report its Emin.
Response given: < 6%

Challenge: Could you share which Emin value was measured for O=C(C1CCN(c2cc(Oc3ccc(F)cc3F)ncn2)CC1)N1Cc2ccccc2C1 ?
Response given: 42.6%

###

methodNotes: Ratio of unbound brain to plasma concentration in rat
Format: ADME
particulars: brain/plasma, read-out: K(p,uu,brain)
valueType: Kp uu

Challenge: For the compound O=C(C1CCN(c2cc(Oc3ccccc3F)ncn2)CC1)N1CCc2ccccc2C1 , what Kp uu is on record?
Response given: 0.75

###

measuredOn: Muscarinic acetylcholine receptor M4 (Homo sapiens) (UniProt P08173)
methodNotes: Antagonist activity at recombinant human M4 receptor expressed in CHO cells co-expressing Gqi5 by calcium mobilization assay relative to acetylcholine
Format: functional, cell-based
valueType: Emin (%)
Express the result in % but write the number alone.

- molecule: "O=C(C1CCN(c2cc(Oc3ccc(F)cc3F)ncn2)CC1)N1CCC2CCCCC2C1 (stereo not given)"
  quantityUnit: "%"
  reportedValue: 5.1

Challenge: Identify the measured Emin of CCc1ccc(Oc2cc(N3CCC(C(=O)N4CCc5ccccc5C4)CC3)ncn2)cc1 for Muscarinic acetylcholine receptor M4 (Homo sapiens) (UniProt P08173).
Response given: 5.3

Challenge: # value lookup — system Muscarinic acetylcholine receptor M4 (Homo sapiens) (UniProt P08173), readout Emin, item COc1ccc(Oc2cc(N3CCC(C(=O)N4CCc5ccccc5C4)CC3)ncn2)cc1
Response given: 5.3

Challenge: # value lookup — system Muscarinic acetylcholine receptor M4 (Homo sapiens) (UniProt P08173), readout Emin, item O=C(C1CCN(c2cc(Oc3ccccc3)ncn2)CC1)N1CCc2ccccc2C1
Response given: 2.7

Challenge: // lookup Emin | system=Muscarinic acetylcholine receptor M4 (Homo sapiens) (UniProt P08173) | key= O=C(C1CCN(c2cc(Oc3ccc4ccccc4c3)ncn2)CC1)N1CCc2ccccc2C1
Response given: 6.8

###

measuredOn: Muscarinic acetylcholine receptor M4 (Homo sapiens)
Sequence (P08173 whole entry): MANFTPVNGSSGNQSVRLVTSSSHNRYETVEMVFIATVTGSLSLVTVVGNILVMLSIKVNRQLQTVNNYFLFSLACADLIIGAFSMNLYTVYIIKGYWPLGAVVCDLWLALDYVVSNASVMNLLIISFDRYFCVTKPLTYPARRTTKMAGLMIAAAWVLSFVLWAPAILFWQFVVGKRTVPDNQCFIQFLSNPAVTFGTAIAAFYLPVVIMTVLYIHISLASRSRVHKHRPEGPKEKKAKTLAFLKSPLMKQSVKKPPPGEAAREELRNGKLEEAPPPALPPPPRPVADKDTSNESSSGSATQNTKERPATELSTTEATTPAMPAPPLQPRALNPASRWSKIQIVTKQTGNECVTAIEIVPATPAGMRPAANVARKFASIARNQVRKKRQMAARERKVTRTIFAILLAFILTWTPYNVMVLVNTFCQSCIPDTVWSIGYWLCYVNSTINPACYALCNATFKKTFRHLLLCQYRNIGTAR
methodNotes: Antagonist activity at recombinant human M4 receptor expressed in CHO cells co-expressing Gqi5 by calcium mobilization assay
Type: functional, cell-based
particulars: read-out: pIC50 (converted)
valueType: IC50 (µM)
Use µM as the unit, but write only the number.

Consider the reported IC50 for these compounds:
- smilesString: "O=C(C1CCN(c2cc(Oc3ccc(F)cc3F)ncn2)CC1)N1Cc2ccccc2C1"
  valueType: "IC50"
  reportedValue: 0.324
- smilesString: "O=C(C1CCN(c2cc(Oc3ccc(F)cc3)ncn2)CC1)N1CCc2ccccc2C1"
  valueType: "IC50"
  reportedValue: 0.229
- smilesString: "COc1ccc2c(c1)CN(C(=O)C1CCN(c3cc(Oc4ccc(F)cc4F)ncn3)CC1)CC2"
  valueType: "IC50"
  reportedValue: 2.4
- smilesString: "O=C(C1CCN(c2cc(Oc3ccccc3F)ncn2)CC1)N1CCc2ccccc2C1"
  valueType: "IC50"
  reportedValue: 0.123
- smilesString: "CCc1ccc(Oc2cc(N3CCC(C(=O)N4CCc5ccccc5C4)CC3)ncn2)cc1"
  valueType: "IC50"
  reportedValue: 0.347

Challenge: Consider the compound COc1ccc2c(c1)CCN(C(=O)C1CCN(c3cc(Oc4ccc(F)cc4F)ncn3)CC1)C2 and give its measured IC50.
Response given: 0.562

Challenge: For O=C(C1CCN(c2cc(Oc3ccc(Cl)cc3)ncn2)CC1)N1CCc2ccccc2C1 , what is its reported IC50?
Response given: 0.132

Challenge: Entry O=C(C1CCN(c2cc(Oc3ccccc3)ncn2)CC1)N1CCc2ccccc2C1 : reported IC50 = ?
Response given: 0.617

Challenge: Tell me the measured IC50 of O=C(C1CCN(c2cc(Oc3cccc(F)c3F)ncn2)CC1)N1CCc2ccccc2C1 , please.
Response given: 0.17
